FYI, the data here is from PubChem BioAssay (EPA / NIEHS).

- tgt: Cellular tumor antigen p53 (Homo sapiens) (UniProt P04637)
- Sequence (P04637 whole entry, looked up): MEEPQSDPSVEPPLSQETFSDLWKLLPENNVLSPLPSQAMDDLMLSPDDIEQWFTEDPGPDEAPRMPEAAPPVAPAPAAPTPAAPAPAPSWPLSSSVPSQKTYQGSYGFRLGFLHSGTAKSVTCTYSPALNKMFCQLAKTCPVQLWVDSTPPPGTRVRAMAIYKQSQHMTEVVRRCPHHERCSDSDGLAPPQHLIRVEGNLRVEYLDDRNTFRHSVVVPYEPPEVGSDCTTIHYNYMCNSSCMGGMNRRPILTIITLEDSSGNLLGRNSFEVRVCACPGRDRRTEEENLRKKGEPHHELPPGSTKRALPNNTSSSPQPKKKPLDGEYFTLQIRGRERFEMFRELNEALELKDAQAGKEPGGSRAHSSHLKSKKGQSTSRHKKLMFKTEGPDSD
- methodSummary: TOX21_p53_BLA_p2_ratio: Tox21 HCT-116 p53 Agonism Beta-lactamase Assay, Ratio, Phase 2 (AID 2283592)
Results filed as inconclusive are left out. Activity calls are given as the source filed them. The calls were made as follows: active = hit-call score of the fitted dose curve at least 0.9, where 1 is the maximum; inconclusive = response in the unintended direction; inactive = score below 0.9.
// classify into active, inactive

Answered cases to consult:
compound	tgt	cat
Cl[Si](Cl)(c1ccccc1)c1ccccc1	Cellular tumor antigen p53 (Homo sapiens) (UniProt P04637)	inactive
CC(C)(C)CC(C)(C)c1ccc(O)c(Cc2ccc(Cl)cc2Cl)c1	Cellular tumor antigen p53 (Homo sapiens) (UniProt P04637)	active
CC/C=C\CCO	Cellular tumor antigen p53 (Homo sapiens) (UniProt P04637)	inactive
O=C(OCC1CO1)C1CCCCC1C(=O)OCC1CO1 (centres undefined)	Cellular tumor antigen p53 (Homo sapiens) (UniProt P04637)	active

Ask | Look up the recorded call for CN1CCN(c2c(F)cc3c(=O)c(C(=O)O)cn(CCF)c3c2F)CC1 in this test.
Reply | inactive

Ask | Look up the recorded call for C=COCC1CCC(CO)CC1 (centres undefined) in this test.
Reply | inactive
